B1: TPR t1 (parent)
chain: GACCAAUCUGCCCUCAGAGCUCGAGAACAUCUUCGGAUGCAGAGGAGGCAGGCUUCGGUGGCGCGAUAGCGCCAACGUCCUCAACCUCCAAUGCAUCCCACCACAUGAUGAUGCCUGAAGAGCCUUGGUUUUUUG

# Variants of: B1
# PROTOCOL_SUMMARY: polymerase ribozyme fitness, log enrichment relative to wild type (log ratio); higher = more active; in vitro selection for triplet polymerase activity
Record 1 whenever polymerase ribozyme fitness (log ratio) is at -2 or higher; record -1 when lower.

G60C A121C U130A    1
C8G U9C A41C A43U G52A U112A    1
G39C G48U C73A A100U    -1
G57A U96G A105U C123G G127A    -1
G63U C124U    1
A74G U106A U125A    1
A6U C80A A95U G120A U130G    -1
C3A C53G C64U A118G C123U    1
C20A C88G    -1
G25A C31U G63U G77U G117A C124U    -1
A50C C53U C97U    1
A6U A16C C40U C70U C85G    -1
C4U U109A    -1
G63C G77C    -1
A29G C104U U112G    1
A50U C64U C70U    -1
C56U C102A    1
C53G U126A    -1
C11U G52A G57U A95U    1
A50U G60U U125G U129C    -1
G122A U130A    1
C12G A103U    -1
G44U C79G A91C C115A    -1
G39A G51A    -1
U9G G36U G57U C62U    1
A24G A111G    -1
A43G U78A C88U U109G    -1
U38G G61C U96G G122A    -1
C12U C53G C97A    -1
C13A A18C    -1
G10C C34A    -1
A6G C49G G51U C73G U133A    -1
G10U A46C    1
C76A C82G C88U G110C    -1
C12A C85G U116C    -1
C53A C73A    1
U7A A50U C64U    1
G19A C124A U129C    -1
G60C G110U    1
A18C C89G U116C C124A    1
U7A A43U    1
U21C A74U G120A    1
C13U A46U G110A A111C A119C    -1
C56U G57C C70A U92A    -1
A74G C80A C82U A118U    -1
C88G G117C    -1
